# experimental_details: Selectivity index, ratio of IC50 for cytotoxicity against mouse RAW264.7 cells to IC50 for antitrypanosomal activity against blood stream form of Trypanosoma brucei Lister 427
# Assay type: toxicity, cell-based
# condition_notes: read-out: Ratio IC50
Kindly supply the reported selectivity ratio values for the records listed here.
// no unit, no text: just the number

Exam item: Specify measured selectivity ratio for N=C(N)Nc1ccc(NC(=O)c2ccc(C(F)(F)F)cc2C(F)(F)F)cc1OCc1ccc(C(F)(F)F)cc1 .
Marked response: 27.5

Exam item: Specify measured selectivity ratio for N=C(N)Nc1ccc(NC(=O)c2ccc3c(c2)OCO3)cc1OCc1ccccc1C(F)(F)F .
Marked response: 10

Exam item: Specify measured selectivity ratio for CCCCCCOc1cc(NC(=O)c2ccc(OC)cc2)ccc1NC(=N)N .
Marked response: 5.17

Exam item: Specify measured selectivity ratio for Cc1ccc(C)c(COc2cc(NC(=O)c3cc(C(F)(F)F)cc(C(F)(F)F)c3)ccc2NC(=N)N)c1 .
Marked response: 23.8

Exam item: Specify measured selectivity ratio for CN(c1ccc(NC(=O)c2cccc(C(=N)N)c2)cc1OCc1ccc(C(F)(F)F)cc1)S(=O)(=O)C(F)(F)F .
Marked response: 10

Exam item: Specify measured selectivity ratio for N=C(N)Nc1ccc(NC(=O)c2ccc(Cl)c(Cl)c2)cc1OCc1ccccc1C(F)(F)F .
Marked response: 12.8

Exam item: Specify measured selectivity ratio for N=C(N)Nc1ccc(NC(=O)c2cc(C(F)(F)F)cc(C(F)(F)F)c2)cc1OCc1ccc(C(F)(F)F)cc1 .
Marked response: 29.6

Exam item: Specify measured selectivity ratio for N=C(N)Nc1ccc(NC(=O)c2ccc3c(c2)OCO3)cc1OCc1ccc(C(F)(F)F)cc1 .
Marked response: 0.54

Exam item: Specify measured selectivity ratio for CN(c1ccc(NC(=O)c2ccc(C(=N)N)cc2)cc1OCc1ccc(C(F)(F)F)cc1)S(=O)(=O)Cc1ccccc1 .
Marked response: 17.6

Exam item: Specify measured selectivity ratio for COc1ccc(C(=O)Nc2ccc(NC(=N)N)c(OCc3cc(OC)ccc3OC)c2)cc1 .
Marked response: 211

Exam item: Specify measured selectivity ratio for CCCCCCOc1cc(NC(=O)c2ccc3c(c2)OCO3)ccc1NC(=N)N .
Marked response: 9.2

Exam item: Specify measured selectivity ratio for CN(c1ccc(NC(=O)c2cccc(C(=N)N)c2)cc1OCc1cccc(C(F)(F)F)c1)S(=O)(=O)Cc1ccccc1 .
Marked response: 32.6

Exam item: Specify measured selectivity ratio for COc1ccc(C(=O)Nc2ccc(NC(=N)N)c(OCc3cc(C)ccc3C)c2)cc1 .
Marked response: 10.4

Exam item: Specify measured selectivity ratio for N=C(N)Nc1ccc(NC(=O)c2ccc3c(c2)OCO3)cc1OCc1cccc(C(F)(F)F)c1 .
Marked response: 2.99

Exam item: Specify measured selectivity ratio for N=C(N)Nc1ccc(NC(=O)c2cc(C(F)(F)F)cc(C(F)(F)F)c2)cc1OCc1ccccc1C(F)(F)F .
Marked response: 10.7

Exam item: Specify measured selectivity ratio for N=C(N)Nc1ccc(NC(=O)c2ccc(Cl)c(Cl)c2)cc1OCc1ccc(C(F)(F)F)cc1 .
Marked response: 10

Exam item: Specify measured selectivity ratio for COc1ccc(C(=O)Nc2ccc(NC(=N)N)c(OCc3cccc(C(F)(F)F)c3)c2)cc1 .
Marked response: 3.71

---

# experimental_details: Selectivity index, ratio of IC50 for cytotoxicity against HEK293 cells to IC50 for antitrypanosomal activity against blood stream form of Trypanosoma brucei Lister 427
# Type: toxicity, cell-based
# condition_notes: human, read-out: Ratio IC50
endpoint_name: selectivity ratio

Exam item: Specify measured selectivity ratio for N=C(N)Nc1ccc(NC(=O)c2ccc(C(F)(F)F)cc2C(F)(F)F)cc1OCc1ccc(C(F)(F)F)cc1 .
Marked response: 15.7

Exam item: Specify measured selectivity ratio for N=C(N)Nc1ccc(NC(=O)c2ccc3c(c2)OCO3)cc1OCc1cccc(C(F)(F)F)c1 .
Marked response: 9.3

Exam item: Specify measured selectivity ratio for COc1ccc(OC)c(COc2cc(NC(=O)c3cc(C(F)(F)F)cc(C(F)(F)F)c3)ccc2NC(=N)N)c1 .
Marked response: < 6.13

Exam item: Specify measured selectivity ratio for COc1ccc(C(=O)Nc2ccc(NC(=N)N)c(OCc3cc(C)ccc3C)c2)cc1 .
Marked response: > 10.4

Exam item: Specify measured selectivity ratio for N=C(N)Nc1ccc(NC(=O)c2ccc3c(c2)OCO3)cc1OCc1ccc(C(F)(F)F)cc1 .
Marked response: < 6.87

Exam item: Specify measured selectivity ratio for COc1ccc(C(=O)Nc2ccc(NC(=N)N)c(OCc3cccc(C(F)(F)F)c3)c2)cc1 .
Marked response: 9.58

Exam item: Specify measured selectivity ratio for N=C(N)Nc1ccc(NC(=O)c2cc(C(F)(F)F)cc(C(F)(F)F)c2)cc1OCc1ccc(C(F)(F)F)cc1 .
Marked response: 24.6

Exam item: Specify measured selectivity ratio for N=C(N)Nc1ccc(NC(=O)c2ccc(Cl)c(Cl)c2)cc1OCc1ccccc1C(F)(F)F .
Marked response: > 32.8

Exam item: Specify measured selectivity ratio for CN(c1ccc(NC(=O)c2ccc(C(=N)N)cc2)cc1OCc1ccc(C(F)(F)F)cc1)S(=O)(=O)Cc1ccccc1 .
Marked response: > 17.6

Exam item: Specify measured selectivity ratio for CN(c1ccc(NC(=O)c2cccc(C(=N)N)c2)cc1OCc1cccc(C(F)(F)F)c1)S(=O)(=O)Cc1ccccc1 .
Marked response: > 32.6

Exam item: Specify measured selectivity ratio for N=C(N)Nc1ccc(NC(=O)c2ccc3c(c2)OCO3)cc1OCc1ccccc1C(F)(F)F .
Marked response: < 9

Exam item: Specify measured selectivity ratio for Cc1ccc(C(F)(F)F)c(COc2cc(NC(=O)c3cccc(C(=N)N)c3)ccc2N(C)S(=O)(=O)C(F)(F)F)c1 .
Marked response: 114

Exam item: Specify measured selectivity ratio for N=C(N)Nc1ccc(NC(=O)c2cc(C(F)(F)F)cc(C(F)(F)F)c2)cc1OCc1ccccc1C(F)(F)F .
Marked response: > 11.1

Exam item: Specify measured selectivity ratio for COc1ccc(C(=O)Nc2ccc(NC(=N)N)c(OCc3cc(OC)ccc3OC)c2)cc1 .
Marked response: > 556

Exam item: Specify measured selectivity ratio for Cc1ccc(C)c(COc2cc(NC(=O)c3cc(C(F)(F)F)cc(C(F)(F)F)c3)ccc2NC(=N)N)c1 .
Marked response: > 23.8

Exam item: Specify measured selectivity ratio for CCCCCCOc1cc(NC(=O)c2ccc3c(c2)OCO3)ccc1NC(=N)N .
Marked response: < 7.7

Exam item: Specify measured selectivity ratio for CN(c1ccc(NC(=O)c2cccc(C(=N)N)c2)cc1OCc1ccc(C(F)(F)F)cc1)S(=O)(=O)Cc1ccccc1 .
Marked response: > 36.3

Exam item: Specify measured selectivity ratio for CCS(=O)(=O)N(C)c1ccc(NC(=O)c2cccc(C(=N)N)c2)cc1OCc1ccc(C(=N)N)cc1 .
Marked response: 722

Exam item: Specify measured selectivity ratio for Cc1ccc(C)c(COc2cc(NC(=O)c3ccc(Cl)c(Cl)c3)ccc2NC(=N)N)c1 .
Marked response: > 18.1

Reference source for all entries: ChEMBL document CHEMBL5143658
